Please provide measured IC50 for the entries that follow.
tested on: OVCAR-8 complex spheroid, growth inhibition; assay: Anticancer human tumor OVCAR-8 cell line growth inhibition [Asc]; conditions: curve of first compound; second compound 3 µM;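 further: spheroids exposed to agents for 7 days before readout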

Query: Find IC50 for Cn1ncnc1[C@H]1c2n[nH]c(=O)c3cc(F)cc(c23)N[C@@H]1c1ccc(F)cc1 + CCN1C(C(=O)NC23CCC(C(=O)O)(CC2)CC3)C(c2cccc(Cl)c2F)C2(C(=O)Nc3cc(Cl)ccc32)C12CCCCC2 on OVCAR-8 complex spheroid, growth inhibition and write it down.
Result: > 100 nM

Query: Find IC50 for NC1CCC(NC2CC2c2ccccc2)CC1 (stereo not given) + CCN1C(C(=O)NC23CCC(C(=O)O)(CC2)CC3)C(c2cccc(Cl)c2F)C2(C(=O)Nc3cc(Cl)ccc32)C12CCCCC2 on OVCAR-8 complex spheroid, growth inhibition and write it down.
Result: > 100 nM

Query: Find IC50 for C#Cc1c(F)ccc2cc(O)cc(-c3ncc4c(N5CC6CCC(C5)N6)nc(OCC56CCCN5CC(F)C6)nc4c3F)c12 (stereo not given) + CCN1C(C(=O)NC23CCC(C(=O)O)(CC2)CC3)C(c2cccc(Cl)c2F)C2(C(=O)Nc3cc(Cl)ccc32)C12CCCCC2 on OVCAR-8 complex spheroid, growth inhibition and write it down.
Result: > 10000 nM

Query: Find IC50 for Cc1nc(N2CCC3(CC2)COC(C)C3N)c(CO)nc1Sc1ccnc(N)c1Cl (stereo not given) + CCN1C(C(=O)NC23CCC(C(=O)O)(CC2)CC3)C(c2cccc(Cl)c2F)C2(C(=O)Nc3cc(Cl)ccc32)C12CCCCC2 on OVCAR-8 complex spheroid, growth inhibition and write it down.
Result: > 3000 nM

Query: Find IC50 for NC(=O)C(=Cn1cnc(-c2cc(C(F)(F)F)cc(C(F)(F)F)c2)n1)c1cncnc1 + CCN1C(C(=O)NC23CCC(C(=O)O)(CC2)CC3)C(c2cccc(Cl)c2F)C2(C(=O)Nc3cc(Cl)ccc32)C12CCCCC2 on OVCAR-8 complex spheroid, growth inhibition and write it down.
Result: > 300 nM

====

Test system: OVCAR-8 complex spheroid, growth inhibition
Assay: Anticancer human tumor OVCAR-8 cell line growth inhibition [Asc];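 further: spheroids exposed to agents for 7 days before readout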;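 on viability, T/C: percent viability relative to DMSO vehicle wells taken as 100%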
Conditions: second compound 0.0316 µM; first compound 0.0316 µM; stronger effect = lower value
Description: Multicellular complex tumor spheroid response to apoptosis pathway targeting inhibitors Alrizomadlin, Pelcitoclax, and Dasminapant in combination with a variety of drugs and investigational agents in selected tumor cell lines […] Compounds. […] If the clinical Cmax for an agent had not been determined, the highest concentration tested was 10 microM. […]
MEASURED_QUANTITY: viability, T/C

Query: Provide only the value of recorded viability, T/C for O=C(c1cc(Cc2n[nH]c(=O)c3ccccc23)ccc1F)N1CCN(C(=O)C2CC2)CC1 + Cc1c(S(C)(=O)=O)c(-c2cc(F)cc(N3CCN(c4ccc(NS(=O)(=O)c5ccc(NC(CCN6CCC(C(=O)OCCCP(=O)(O)O)CC6)CSc6ccccc6)c(S(=O)(=O)C(F)(F)F)c5)cc4)CC3)c2)c(-c2ccc(Cl)cc2)n1C(C)C
Result: 95.1%

Query: Provide only the value of recorded viability, T/C for O=C(c1ccc(F)c(F)c1Nc1ccc(I)cc1F)N1CC(O)([C@@H]2CCCCN2)C1 + CNC(C)C(=O)NC1CN(S(=O)(=O)c2cccc(S(=O)(=O)N3CCC4CCC(C(=O)NC(c5ccccc5)c5ccccc5)N4C(=O)C(NC(=O)C(C)NC)C3)c2)CCC2CCC(C(=O)NC(c3ccccc3)c3ccccc3)N2C1=O
Result: 116%

Query: Provide only the value of recorded viability, T/C for O=C(c1cc(Cc2n[nH]c(=O)c3ccccc23)ccc1F)N1CCN(C(=O)C2CC2)CC1 + CNC(C)C(=O)NC1CN(S(=O)(=O)c2cccc(S(=O)(=O)N3CCC4CCC(C(=O)NC(c5ccccc5)c5ccccc5)N4C(=O)C(NC(=O)C(C)NC)C3)c2)CCC2CCC(C(=O)NC(c3ccccc3)c3ccccc3)N2C1=O
Result: 94%

====

Tested on: OVCAR-8 complex spheroid, growth inhibition
Experiment: Anticancer human tumor OVCAR-8 cell line growth inhibition [Asc]; active = viability on the fitted dose curve at most 10% of control; inactive = the rest;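 further: spheroids exposed to agents for 7 days before readout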
Settings: second compound 10 µM; first compound 10 µM
Excerpt: Multicellular complex tumor spheroid response to apoptosis pathway targeting inhibitors Alrizomadlin, Pelcitoclax, and Dasminapant in combination with a variety of drugs and investigational agents in selected tumor cell lines […] Compounds. […] If the clinical Cmax for an agent had not been determined, the highest concentration tested was 10 microM. […]
# valid calls are yes (1) = active, no (0) = inactive; nothing else

Query: For this compound, state the assay outcome: C=C(F)C(=O)N1CCN(c2nc(OCC3CCCN3C)nc3c2CCN(c2cccc4cccc(Cl)c24)C3)CC1CC#N (centres undefined) + Cc1c(S(C)(=O)=O)c(-c2cc(F)cc(N3CCN(c4ccc(NS(=O)(=O)c5ccc(NC(CCN6CCC(C(=O)OCCCP(=O)(O)O)CC6)CSc6ccccc6)c(S(=O)(=O)C(F)(F)F)c5)cc4)CC3)c2)c(-c2ccc(Cl)cc2)n1C(C)C
Result: yes (1)

Query: For this compound, state the assay outcome: C=CC(=O)N1CCN(c2nc(=O)n(-c3c(C)ccnc3C(C)C)c3nc(-c4c(O)cccc4F)c(F)cc23)C(C)C1 (centres undefined) + Cc1c(S(C)(=O)=O)c(-c2cc(F)cc(N3CCN(c4ccc(NS(=O)(=O)c5ccc(NC(CCN6CCC(C(=O)OCCCP(=O)(O)O)CC6)CSc6ccccc6)c(S(=O)(=O)C(F)(F)F)c5)cc4)CC3)c2)c(-c2ccc(Cl)cc2)n1C(C)C
Result: no (0)

Query: For this compound, state the assay outcome: C#Cc1c(F)ccc2cc(O)cc(-c3ncc4c(N5CC6CCC(C5)N6)nc(OCC56CCCN5CC(F)C6)nc4c3F)c12 (centres undefined) + Cc1c(S(C)(=O)=O)c(-c2cc(F)cc(N3CCN(c4ccc(NS(=O)(=O)c5ccc(NC(CCN6CCC(C(=O)OCCCP(=O)(O)O)CC6)CSc6ccccc6)c(S(=O)(=O)C(F)(F)F)c5)cc4)CC3)c2)c(-c2ccc(Cl)cc2)n1C(C)C
Result: no (0)

Query: For this compound, state the assay outcome: O=C(c1cc(Cc2n[nH]c(=O)c3ccccc23)ccc1F)N1CCN(C(=O)C2CC2)CC1 + Cc1c(S(C)(=O)=O)c(-c2cc(F)cc(N3CCN(c4ccc(NS(=O)(=O)c5ccc(NC(CCN6CCC(C(=O)OCCCP(=O)(O)O)CC6)CSc6ccccc6)c(S(=O)(=O)C(F)(F)F)c5)cc4)CC3)c2)c(-c2ccc(Cl)cc2)n1C(C)C
Result: no (0)

====

test system: OVCAR-8 complex spheroid, growth inhibition; test: Anticancer human tumor OVCAR-8 cell line growth inhibition [Asc]; details: second compound 0.316 µM; first compound 0.0949 µM; stronger effect = lower value;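 further: spheroids exposed to agents for 7 days before readout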;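 on viability, T/C: percent viability relative to DMSO vehicle wells taken as 100%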
MEASURED_QUANTITY: viability, T/C (%)
Write down the numeric answer in % and omit the unit.

Query: Provide only the value of recorded viability, T/C for Cc1nc(N2CCC3(CC2)COC(C)C3N)c(CO)nc1Sc1ccnc(N)c1Cl (stereo not drawn) + Cc1c(S(C)(=O)=O)c(-c2cc(F)cc(N3CCN(c4ccc(NS(=O)(=O)c5ccc(NC(CCN6CCC(C(=O)OCCCP(=O)(O)O)CC6)CSc6ccccc6)c(S(=O)(=O)C(F)(F)F)c5)cc4)CC3)c2)c(-c2ccc(Cl)cc2)n1C(C)C
Result: 176

Query: Provide only the value of recorded viability, T/C for CCN1C(C(=O)NC23CCC(C(=O)O)(CC2)CC3)C(c2cccc(Cl)c2F)C2(C(=O)Nc3cc(Cl)ccc32)C12CCCCC2 (stereo not drawn) + CNC(C)C(=O)NC1CN(S(=O)(=O)c2cccc(S(=O)(=O)N3CCC4CCC(C(=O)NC(c5ccccc5)c5ccccc5)N4C(=O)C(NC(=O)C(C)NC)C3)c2)CCC2CCC(C(=O)NC(c3ccccc3)c3ccccc3)N2C1=O
Result: 90.2

Query: Provide only the value of recorded viability, T/C for NC(=O)C(=Cn1cnc(-c2cc(C(F)(F)F)cc(C(F)(F)F)c2)n1)c1cncnc1 + Cc1c(S(C)(=O)=O)c(-c2cc(F)cc(N3CCN(c4ccc(NS(=O)(=O)c5ccc(NC(CCN6CCC(C(=O)OCCCP(=O)(O)O)CC6)CSc6ccccc6)c(S(=O)(=O)C(F)(F)F)c5)cc4)CC3)c2)c(-c2ccc(Cl)cc2)n1C(C)C
Result: 90.4

====

tested on: OVCAR-8 complex spheroid, growth inhibition; experiment: Anticancer human tumor OVCAR-8 cell line growth inhibition [Asc]; conditions: second compound 0.0316 µM; first compound 0.316 µM; stronger effect = lower value;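 further: spheroids exposed to agents for 7 days before readout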;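 on viability, T/C: percent viability relative to DMSO vehicle wells taken as 100%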
Please provide measured viability, T/C for the entries that follow.
Write down the numeric answer in % and omit the unit.

Query: Find viability, T/C for CNC(C)C(=O)NC1CN(S(=O)(=O)c2cccc(S(=O)(=O)N3CCC4CCC(C(=O)NC(c5ccccc5)c5ccccc5)N4C(=O)C(NC(=O)C(C)NC)C3)c2)CCC2CCC(C(=O)NC(c3ccccc3)c3ccccc3)N2C1=O (centres undefined) + Cc1c(S(C)(=O)=O)c(-c2cc(F)cc(N3CCN(c4ccc(NS(=O)(=O)c5ccc(NC(CCN6CCC(C(=O)OCCCP(=O)(O)O)CC6)CSc6ccccc6)c(S(=O)(=O)C(F)(F)F)c5)cc4)CC3)c2)c(-c2ccc(Cl)cc2)n1C(C)C on OVCAR-8 complex spheroid, growth inhibition and write it down.
Result: 67.5

Query: Find viability, T/C for COc1c(OCCCN2CCOCC2)ccc2c3n(c(=NC(=O)c4cnc(N)nc4)nc12)CCN3 + CNC(C)C(=O)NC1CN(S(=O)(=O)c2cccc(S(=O)(=O)N3CCC4CCC(C(=O)NC(c5ccccc5)c5ccccc5)N4C(=O)C(NC(=O)C(C)NC)C3)c2)CCC2CCC(C(=O)NC(c3ccccc3)c3ccccc3)N2C1=O on OVCAR-8 complex spheroid, growth inhibition and write it down.
Result: 135

Query: Find viability, T/C for C=C(F)C(=O)N1CCN(c2nc(OCC3CCCN3C)nc3c2CCN(c2cccc4cccc(Cl)c24)C3)CC1CC#N (centres undefined) + Cc1c(S(C)(=O)=O)c(-c2cc(F)cc(N3CCN(c4ccc(NS(=O)(=O)c5ccc(NC(CCN6CCC(C(=O)OCCCP(=O)(O)O)CC6)CSc6ccccc6)c(S(=O)(=O)C(F)(F)F)c5)cc4)CC3)c2)c(-c2ccc(Cl)cc2)n1C(C)C on OVCAR-8 complex spheroid, growth inhibition and write it down.
Result: 91.8

Query: Find viability, T/C for O=C(c1cc(Cc2n[nH]c(=O)c3ccccc23)ccc1F)N1CCN(C(=O)C2CC2)CC1 + Cc1c(S(C)(=O)=O)c(-c2cc(F)cc(N3CCN(c4ccc(NS(=O)(=O)c5ccc(NC(CCN6CCC(C(=O)OCCCP(=O)(O)O)CC6)CSc6ccccc6)c(S(=O)(=O)C(F)(F)F)c5)cc4)CC3)c2)c(-c2ccc(Cl)cc2)n1C(C)C on OVCAR-8 complex spheroid, growth inhibition and write it down.
Result: 88.2
